target: GST-tagged-Wee1 kinase (Homo sapiens, UniProt P30291); construct: purchased Carnabio 05-177; assay: Wee1 time-resolved fluorescence equilibrium binding assay (displacement of Oregon Green-labeled ATP-competitive probe); conditions: TR-FRET probe displacement; 2 nM GST-Wee1, 300 nM probe, 1 hour incubation; read-out: Wee-1 binding (Ki nM)
Sequence (P30291 whole entry): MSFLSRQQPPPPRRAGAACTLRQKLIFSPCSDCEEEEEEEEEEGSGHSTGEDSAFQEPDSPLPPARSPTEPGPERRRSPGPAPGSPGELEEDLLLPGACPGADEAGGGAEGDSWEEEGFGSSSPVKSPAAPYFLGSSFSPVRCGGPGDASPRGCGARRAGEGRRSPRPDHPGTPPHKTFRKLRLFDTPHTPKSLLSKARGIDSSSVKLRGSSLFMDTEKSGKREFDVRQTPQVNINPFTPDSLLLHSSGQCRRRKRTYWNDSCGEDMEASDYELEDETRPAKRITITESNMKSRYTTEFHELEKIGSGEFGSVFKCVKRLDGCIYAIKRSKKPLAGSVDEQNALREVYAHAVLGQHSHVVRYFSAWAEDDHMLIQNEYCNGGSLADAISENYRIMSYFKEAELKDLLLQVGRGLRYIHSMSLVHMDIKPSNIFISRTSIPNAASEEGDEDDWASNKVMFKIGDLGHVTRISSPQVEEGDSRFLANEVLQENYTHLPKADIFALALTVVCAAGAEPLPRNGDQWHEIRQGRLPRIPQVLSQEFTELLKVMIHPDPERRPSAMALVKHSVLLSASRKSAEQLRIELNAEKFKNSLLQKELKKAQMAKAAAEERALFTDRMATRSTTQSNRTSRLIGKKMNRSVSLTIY
Attribute: Ki
Write the numeric value and append its unit.

Worked set:
CN1c2ccccc2-c2nc(Nc3ccc(N4CCOCC4)cc3)ncc2S1(=O)=O ... 12 nM
C=CCN1c2ncccc2-c2nc(Nc3ccc4c(c3)N(C(C)=O)CC4)ncc2S1(=O)=O ... 48 nM
C=CCN1c2c(C(=O)NC)cccc2-c2nc(Nc3ccc(N4CCN(C)CC4)cc3)ncc2S1(=O)=O ... 11 nM
C=CCN1c2c(C(=O)NCCO)cccc2-c2nc(Nc3ccc(N4CCN(C)CC4)cc3)ncc2S1(=O)=O ... 37 nM
CCCN1c2ccccc2-c2nc(Nc3ccc(N4CCN(C)CC4)cc3)ncc2S1(=O)=O ... 4 nM

Lab note: need Ki with GST-tagged-Wee1 kinase (Homo sapiens, UniProt P30291) for entry "COC(=O)c1ccc2c(c1)N(c1cccc(C)c1)S(=O)(=O)c1cnc(Nc3ccc(N4CCN(C)CC4)cc3)nc1-2" , please look it up. 63 nM

Likewise for "C=CCN1c2ccccc2-c2nc(Nc3ccc4c(c3)N(C(C)=O)CC4)ncc2S1(=O)=O" ? 9 nM

Likewise for "C=CCN1c2ccccc2-c2nc(Nc3ccc(N4CCNCC4)cc3)ncc2S1(=O)=O" ? 1.5 nM

====

target: GST-tagged-Wee1 kinase (Homo sapiens, UniProt P30291); construct: purchased Carnabio 05-177; experiment: Wee1 time-resolved fluorescence equilibrium binding assay (displacement of Oregon Green-labeled ATP-competitive probe); conditions: TR-FRET probe displacement; 2 nM GST-Wee1, 300 nM probe, 1 hour incubation; read-out: Wee-1 binding (Ki nM)
reported endpoint: Ki (nM)
Give just the number in nM; leave the unit off.

Worked set:
C=CCN1c2ccccc2-c2nc(Nc3ccc(N4CCNCC4)c(F)c3)ncc2S1(=O)=O [Example 31] ... 1.7
C=CCN1c2ccccc2-c2nc(Nc3ccc(N4CCC(C)CC4)cc3)ncc2S1(=O)=O [Example 9] ... 50
C=CCN1c2ccccc2-c2nc(Nc3cccc(N4CCN(C)CC4)c3)ncc2S1(=O)=O [Example 18] ... 4
CCCN1c2cc(C(=O)NC)ccc2-c2nc(Nc3ccc(N4CCN(C)CC4)cc3)ncc2S1(=O)=O [Example 82] ... 10

// below: Ki requested for another compound
Fill blank: measured Ki of the compound C=CCN1c2ccccc2-c2nc(Nc3ccc4c(c3)NC(=O)CO4)ncc2S1(=O)=O [Example 6] is ____. 47
